Experimental Details: protein stability index of a GFP-peptide fusion (yeast GPS) (PSI 1-4); higher = more stable; sorted into four equal gates, so the index is relative within each strain
Run Conditions: pdr5∆
The sequences listed here are annotated with their protein stability index.
Give only the figure.

VSKKELYAIKKVTLNKE [BRR2] : 2.01
IHLKQKLSESLDTRKEL [SMC3] : 3.03
PGTIVLYAERVQDRGLS [RPS3] : 2.99
ASYAKYLIDHIKVEGAV [RPL22A] : 3.13
LFDTYHASKAIGLPRHS [RRP6] : 2.29

Value of measured protein stability index for the entry LFWKVKEEEGSFNNVIG [PRE2] : 3.39
